system: HEK-293T; assay: Multiplex assay against HEK293T; format: toxicity, cell-based; conditions: human, 24 h, 10 µM, compound concentration 10 uM, replicate 2
Non-standard residues stand in square brackets, D forms with d. Residues, ends and D or L forms follow the SMILES beside them.
Some compounds, each annotated with its measured Population Fragmented Nuclei (%).
Supply the numeric figure in %, leaving out any unit text.

Consider the following illustrative entries.
compound	recordedMeasurement
Cc1nn(C)c2nc(NNC(=O)Nc3cc(Cl)nc(Cl)c3)cc(C(C)C)c12	5
S=C(NCCCc1c[nH]cn1)NCCCN(Cc1ccc(Cl)c(Cl)c1)c1ccc(Br)cn1	16
O=C(Nc1cc(-c2ccccc2)nn1-c1ccccc1F)c1ccc([N+](=O)[O-])cc1	7
Cc1cc(=O)n(C)c2cc(N3C(=O)CC[C@H](NS(=O)(=O)CC(C)C)[C@H]3c3ccc(Cl)cc3)ccc12	8

Quick one: Population Fragmented Nuclei (%) for COc1ccc2c(c1OCc1ccccc1)C[C@@H](C(=O)O)N(C(=O)C(c1ccccc1)c1ccccc1)C2 ?
10

Repeat with O=C(O)CCC/C=C\CC1C(O)CC(O)C1/C=C/C(O)COc1cccc(Cl)c1 (stereo not drawn)
12

Repeat with C[C@H](NC(=O)CNC(=O)c1cccc(Cl)c1)c1ccccc1
10

Repeat with OCCCNc1cc(-c2ccnc(Nc3cccc(Cl)c3)n2)ccn1
15

Repeat with CSc1nc(NC2CCCC2)c([N+](=O)[O-])c(NC2CCCC2)n1
8

Repeat with CC(C)C[C@@H]1NC(=O)[C@@H](C(C)C)NC(=O)[C@@H]2CCCN2C(=O)[C@@H](CC(=O)O)NC(=O)[C@@H](Cc2c[nH]c3ccccc23)NC1=O [BQ-123] (cyclo(L[dW][dD]P[dV]))
8

Repeat with C[C@@H]1CC(=O)Nc2cccc(-c3ccc4c(c3)c(-c3cnn(C)c3)nn4C)c2N1
8

Repeat with Cc1ccc(OCC(O)C(C)NC(C)C)c2c1CCC2.Cl (stereo not drawn)
9

Repeat with CCCCC[C@H](O)/C=C/[C@H]1[C@H](O)CC(=O)[C@@H]1CCCCCCC(=O)O
7
